System: chickweed (Stellaria media)
measurement-description: Test C postemergence
Format: in vivo
condition-details: 62 g ai/ha, scale 0 to 100 (0 no effect, 100 complete control)
observable: Chickweed plant response rating
Answers are plain numbers.

COCc1nc(C2CC2)nc(N)c1Br = 0
CN(C)N=Cc1nc(C2CC2)nc(N)c1Br = 0
CCOC(=O)C(OC(C)=O)c1nc(C2CC2)nc(N)c1Br (stereo not drawn) = 0
COC(=O)c1nc(C2CC2)nc(N=CN(C)C)c1Br = 5
CCCOC(=O)c1nc(C2CC2)nc(N)c1Br = 20

Could you now look at the following molecule, please?
Per the record, COC(=O)c1nc(C2CC2C)nc(N)c1Br (stereo not drawn) has Chickweed plant response rating of 0
